Target: PKCθ (Homo sapiens)
Construct: His6
Sequence (Q04759 whole entry): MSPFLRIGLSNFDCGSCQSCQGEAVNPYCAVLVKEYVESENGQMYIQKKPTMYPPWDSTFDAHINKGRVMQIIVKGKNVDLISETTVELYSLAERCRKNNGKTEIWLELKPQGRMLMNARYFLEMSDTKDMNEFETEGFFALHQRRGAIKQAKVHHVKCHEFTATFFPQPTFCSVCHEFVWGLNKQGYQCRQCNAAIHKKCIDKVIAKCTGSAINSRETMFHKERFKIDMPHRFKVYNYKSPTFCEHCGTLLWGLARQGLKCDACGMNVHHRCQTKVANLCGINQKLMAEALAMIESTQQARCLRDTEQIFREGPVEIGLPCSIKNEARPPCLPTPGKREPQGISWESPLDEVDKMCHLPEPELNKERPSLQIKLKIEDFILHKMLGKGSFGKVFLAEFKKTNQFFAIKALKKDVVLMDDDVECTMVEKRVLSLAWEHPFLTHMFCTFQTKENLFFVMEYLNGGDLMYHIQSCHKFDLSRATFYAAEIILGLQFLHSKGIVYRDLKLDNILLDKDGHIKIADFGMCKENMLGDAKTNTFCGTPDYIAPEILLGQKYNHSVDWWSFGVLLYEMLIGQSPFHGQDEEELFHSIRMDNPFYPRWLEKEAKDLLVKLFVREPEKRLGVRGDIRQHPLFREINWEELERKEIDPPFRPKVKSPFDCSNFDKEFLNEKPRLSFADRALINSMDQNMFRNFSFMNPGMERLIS
Assay: In vitro enzyme assay (time-resolved fluorescence kinase assay), PKCθ, 100 μM ATP
pIC50: −log10 of the molar value.
Value type: pIC50

Reference set (8 entries):
Asked: Would you kindly share the measured pIC50 for C[C@@H]1C(=O)NN=C2COc3cc(-c4ccccc4F)c(N4CCN(C)[C@@H](C)C4)cc3N21 ?
Given back: > 6.60

Asked: If you can, please state the reported pIC50 value of CC1C(=O)NN=C2COc3cc(-c4ccccc4)c(NC4(C)CNC4)cc3N21 (stereo not drawn) .
Given back: 6.00 to 6.60

Asked: I would be grateful if you could share the reported pIC50 for C[C@H]1C(=O)NN=C2COc3cc(C4CC4)c(NC4CNC4)cc3N21 (single isomer, unassigned) .
Given back: 6.00 to 6.60

Asked: Find the recorded pIC50 belonging to CC1C(=O)NN=C2COc3cc(C(F)(F)F)c(CC4CNC4)cc3N21 (stereo not drawn) and report it.
Given back: > 6.60

Asked: Requested field: pIC50. Item: CC1C(=O)NN=C2COc3c(cc(NC4CNC4)c(F)c3F)N21 (stereo not drawn)
Given back: > 6.60

Asked: Given the entry Cc1ccc(F)cc1-c1cc2c(cc1NC1CNC1)N1C(=NNC(=O)C1C)CO2 (racemic) , report its measured pIC50.
Given back: > 6.60

Asked: What pIC50 value was documented for this compound, CC1C(=O)NN=C2COc3cc(-c4ccccc4)c(N(C)C4(C)CN(C5COC5)C4)cc3N21 (stereo not drawn) ?
Given back: > 6.60

Asked: Requested read-out: pIC50. Entry: COCc1ccccc1-c1cc2c(cc1N(C)C1(C)CN(C)C1)N1C(=NNC(=O)[C@H]1C)CO2
Given back: > 6.60

More entries:
Asked: State the recorded pIC50 for this entry: C[C@@H]1C(=O)NN=C2COc3cc(-c4ccccc4F)c(N4C[C@H](C)N(C)C[C@@H]4C)cc3N21
Given back: > 6.60

Asked: Could you share which pIC50 value was measured for C[C@@H]1C(=O)NN=C2COc3cc(C(F)(F)F)c([C@@H](C)C4(C)CNC4)cc3N21 (single isomer, unassigned) ?
Given back: > 6.60

Asked: Reported pIC50 for C[C@@H]1C(=O)NN=C2COc3cc([C@H](C)C(F)(F)F)c(NC4CNC4)cc3N21 : what is it?
Given back: > 6.60

Asked: I have this compound here, CC1C(=O)NN=C2COc3cc4ccn(C5CCCNC5)c4cc3N21 (stereo not drawn) , and I need its recorded pIC50.
Given back: > 6.60

Asked: Query: pIC50; subject: CC1C(=O)NN=C2COc3cc(-c4ccc(C(C)(C)C)cc4)c(NC4CNC4)cc3N21 (racemic)
Given back: 6.00 to 6.60

Asked: Which pIC50 reading was recorded for the compound CC1C(=O)NN=C2COc3cc(-c4ccccc4)c(OC4CNC4)cc3N21 (stereo not drawn) ?
Given back: > 6.60

Asked: Request the reported pIC50 associated with C[C@@H]1C(=O)NN=C2COc3cc(-c4ccccc4F)c([C@@H]4CCN(CCO)C[C@@H]4C)cc3N21
Given back: > 6.60

The measured values listed here are drawn from patent US9115151B2.
